log10(IC50) for assorted compounds
Target: telomerase (Homo sapiens)
Construct: assayed for telomerase activity using MGC-803 cells extract; endogenous in cells
Sequence (O14746 whole entry): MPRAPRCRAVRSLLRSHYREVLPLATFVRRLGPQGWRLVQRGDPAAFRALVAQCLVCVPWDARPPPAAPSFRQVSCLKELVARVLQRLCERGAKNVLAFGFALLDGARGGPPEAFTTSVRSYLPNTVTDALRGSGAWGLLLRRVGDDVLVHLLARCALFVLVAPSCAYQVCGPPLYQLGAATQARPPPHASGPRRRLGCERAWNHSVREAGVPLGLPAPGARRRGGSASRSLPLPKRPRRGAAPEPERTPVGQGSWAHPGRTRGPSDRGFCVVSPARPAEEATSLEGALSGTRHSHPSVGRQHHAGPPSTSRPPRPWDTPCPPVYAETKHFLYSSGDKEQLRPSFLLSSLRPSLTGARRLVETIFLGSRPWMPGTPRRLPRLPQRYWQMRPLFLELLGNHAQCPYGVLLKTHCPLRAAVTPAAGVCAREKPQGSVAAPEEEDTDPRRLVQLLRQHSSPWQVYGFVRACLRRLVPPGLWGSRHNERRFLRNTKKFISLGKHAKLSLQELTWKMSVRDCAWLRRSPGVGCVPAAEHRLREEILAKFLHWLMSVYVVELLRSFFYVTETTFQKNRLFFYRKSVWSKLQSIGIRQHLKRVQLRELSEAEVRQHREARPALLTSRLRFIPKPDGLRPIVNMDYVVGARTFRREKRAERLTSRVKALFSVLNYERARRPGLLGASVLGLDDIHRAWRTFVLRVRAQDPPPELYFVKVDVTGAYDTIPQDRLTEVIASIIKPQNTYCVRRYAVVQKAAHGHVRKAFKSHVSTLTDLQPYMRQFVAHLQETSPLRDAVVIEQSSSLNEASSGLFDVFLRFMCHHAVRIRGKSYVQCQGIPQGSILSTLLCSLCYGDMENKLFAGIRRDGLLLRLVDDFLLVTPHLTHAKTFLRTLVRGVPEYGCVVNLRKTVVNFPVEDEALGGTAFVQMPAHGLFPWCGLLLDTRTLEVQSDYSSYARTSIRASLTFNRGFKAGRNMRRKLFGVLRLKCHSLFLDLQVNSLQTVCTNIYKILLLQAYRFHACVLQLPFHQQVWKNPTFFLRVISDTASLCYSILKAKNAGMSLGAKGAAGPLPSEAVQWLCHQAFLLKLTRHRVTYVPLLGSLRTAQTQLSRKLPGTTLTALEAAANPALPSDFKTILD
Sequence (O60832 2-514 partner limits assumed): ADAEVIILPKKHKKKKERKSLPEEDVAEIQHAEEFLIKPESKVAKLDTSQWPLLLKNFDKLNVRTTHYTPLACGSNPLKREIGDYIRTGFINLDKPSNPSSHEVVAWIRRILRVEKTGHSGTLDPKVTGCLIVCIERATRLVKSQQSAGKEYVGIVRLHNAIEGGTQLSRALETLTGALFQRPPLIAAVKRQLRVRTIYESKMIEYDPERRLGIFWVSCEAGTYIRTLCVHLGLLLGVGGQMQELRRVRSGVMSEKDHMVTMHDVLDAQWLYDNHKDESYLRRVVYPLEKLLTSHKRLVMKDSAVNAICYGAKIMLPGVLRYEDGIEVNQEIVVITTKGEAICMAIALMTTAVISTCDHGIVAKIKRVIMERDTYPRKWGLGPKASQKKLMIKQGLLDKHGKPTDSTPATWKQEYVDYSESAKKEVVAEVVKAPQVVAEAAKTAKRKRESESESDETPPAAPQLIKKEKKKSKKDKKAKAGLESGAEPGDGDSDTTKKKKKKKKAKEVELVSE
Sequence (Q9NPE3 whole entry partner): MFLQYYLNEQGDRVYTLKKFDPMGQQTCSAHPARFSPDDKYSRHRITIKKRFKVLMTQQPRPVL
Sequence (Q9NX24 whole entry partner): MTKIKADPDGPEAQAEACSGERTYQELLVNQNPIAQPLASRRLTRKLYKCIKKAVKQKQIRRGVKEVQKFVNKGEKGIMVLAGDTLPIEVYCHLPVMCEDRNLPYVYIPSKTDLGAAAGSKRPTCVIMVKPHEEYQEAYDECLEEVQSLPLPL
Sequence (Q9NY12 whole entry partner): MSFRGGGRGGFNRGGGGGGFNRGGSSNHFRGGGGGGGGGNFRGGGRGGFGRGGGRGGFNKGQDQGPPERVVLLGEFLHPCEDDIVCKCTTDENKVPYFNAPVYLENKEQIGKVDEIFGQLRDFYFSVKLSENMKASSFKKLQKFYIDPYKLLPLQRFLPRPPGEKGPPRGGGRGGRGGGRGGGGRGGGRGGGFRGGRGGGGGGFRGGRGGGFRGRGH
Test: Telomerase activity assay using MGC-803 cells extract
Settings: mean ± SD
endpoint_name: log10(IC50) (log10 of the value in µM)

* COc1cc(OC)c2c(=O)c(OCC(=O)Nc3nnc(-c4ccccc4F)o3)c(-c3ccc(OC)c(OC)c3)oc2c1 | 1.18
* COc1cc(OC)c2c(=O)c(OCC(=O)Nc3nnc(-c4ccccc4[N+](=O)[O-])o3)c(-c3ccc(OC)c(OC)c3)oc2c1 | 1.24
* COc1cc(OC)c2c(=O)c(OCC(=O)Nc3nnc(-c4cccc([N+](=O)[O-])c4)o3)c(-c3ccc(OC)c(OC)c3)oc2c1 | 0.92
* COc1cc(OC)c2c(=O)c(OCC(=O)Nc3nnc(-c4ccc(Cl)cc4)o3)c(-c3cc(OC)c(OC)c(OC)c3)oc2c1 | -0.09
* COc1cc(OC)c2c(=O)c(OCC(=O)Nc3nnc(-c4cccc(C(F)(F)F)c4)o3)c(-c3cc(OC)c(OC)c(OC)c3)oc2c1 | 0.61
* COc1cc(OC)c2c(=O)c(OCC(=O)Nc3nnc(-c4ccccc4[N+](=O)[O-])o3)c(-c3cc(OC)c(OC)c(OC)c3)oc2c1 | 0.84
* COc1cc(OC)c2c(=O)c(OCC(=O)Nc3nnc(-c4ccc(OC(F)(F)F)cc4)o3)c(-c3cc(OC)c(OC)c(OC)c3)oc2c1 | 0.08
* COc1cc(OC)c2c(=O)c(OCC(=O)Nc3nnc(-c4ccc(F)c(Cl)c4)o3)c(-c3cc(OC)c(OC)c(OC)c3)oc2c1 | 0.60
* COc1cc(OC)c2c(=O)c(OCC(=O)Nc3nnc(-c4ccccc4F)o3)c(-c3cc(OC)c(OC)c(OC)c3)oc2c1 | 1.08
* COc1ccc(-c2nnc(NC(=O)COc3c(-c4ccc(OC)c(OC)c4)oc4cc(OC)cc(OC)c4c3=O)o2)cc1 | 1.16
* COc1cc(OC)c2c(=O)c(OCC(=O)Nc3nnc(-c4ccc(F)cc4)o3)c(-c3cc(OC)c(OC)c(OC)c3)oc2c1 | -0.11
* COc1cc(OC)c2c(=O)c(OCC(=O)Nc3nnc(-c4cccc(F)c4)o3)c(-c3cc(OC)c(OC)c(OC)c3)oc2c1 | 0.41
* COc1cc(OC)c2c(=O)c(OCC(=O)Nc3nnc(-c4cccc(C(F)(F)F)c4)o3)c(-c3ccc(OC)c(OC)c3)oc2c1 | 1.44
* COc1cc(OC)c2c(=O)c(OCC(=O)Nc3nnc(-c4ccc(F)cc4)o3)c(-c3ccc(OC)c(OC)c3)oc2c1 | 0.14
* COc1cc(OC)c2c(=O)c(OCC(=O)Nc3nnc(-c4ccco4)o3)c(-c3ccc(OC)c(OC)c3)oc2c1 | 0.45
